Quick reference: IC50 of the listed items.
Study Target: GST-tagged human ROCK1 catalytic domain 1-477 (Homo sapiens, UniProt Q13464)
Construct: human ROCK1 catalytic domain 1-477 from Carna Biosciences (cat #01-109); purchased Carna Biosciences 01-109; host or cells: baculovirus expression system
Sequence (Q13464 1-477): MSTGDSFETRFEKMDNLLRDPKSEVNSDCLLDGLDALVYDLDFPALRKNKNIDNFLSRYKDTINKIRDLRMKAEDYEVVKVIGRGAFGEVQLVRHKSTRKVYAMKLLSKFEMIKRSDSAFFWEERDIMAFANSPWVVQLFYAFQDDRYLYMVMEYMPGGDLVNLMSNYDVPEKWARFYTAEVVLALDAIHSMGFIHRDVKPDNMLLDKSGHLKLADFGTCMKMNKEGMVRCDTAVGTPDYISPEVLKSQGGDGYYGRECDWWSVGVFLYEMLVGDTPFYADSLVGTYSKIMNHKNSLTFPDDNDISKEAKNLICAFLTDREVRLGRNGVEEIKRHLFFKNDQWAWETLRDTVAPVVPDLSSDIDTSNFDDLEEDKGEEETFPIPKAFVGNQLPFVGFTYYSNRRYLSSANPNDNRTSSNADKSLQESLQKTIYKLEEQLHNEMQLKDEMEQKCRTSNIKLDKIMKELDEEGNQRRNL
Assay Text: Isolated Enzyme Assay, ROCK1 (LANCE Ultra ULight-CREBtide FRET)
Type: biochemical
Recorded Conditions: isolated enzyme assay; 30 μM highest concentration tested; read-out: Results from Isolated Enzyme Assay IC50 (μM) ROCK1

# annotated cases, reported IC50 shown
• CC(C)N1CCN(c2cc(-c3nsc(Nc4ccc5[nH]ncc5c4Cl)n3)ccn2)C1=O = < 1 µM
• O=C(NCC(F)(F)F)c1cccc(-c2nsc(Nc3ccc4[nH]ncc4c3Cl)n2)c1 = < 1 µM
• O=C(NC(CO)CO)c1cc(-c2nsc(Nc3ccc4[nH]ncc4c3Cl)n2)ccc1F = < 1 µM

Request: Recorded IC50 for `CC1(C)CCN(c2cccc(-c3nsc(Nc4ccc5[nH]ncc5c4Cl)n3)c2)C1=O` , please?
Result: < 1 µM

Request: Which value of IC50 has been reported for `O=C(c1cccc(-c2nsc(Nc3ccc4[nH]ncc4c3Cl)n2)c1)N1CCCC1` in the records?
Result: 1 to 15 µM

Request: Tell me the measured IC50 of `CC(C)N1CCN(c2cc(-c3nsc(Nc4ccc5[nH]ncc5c4Cl)n3)cn(C)c2=O)C1=O` , please.
Result: 1 to 15 µM

Request: // IC50 lookup, key: `O=C1CCCN1c1cc(-c2nsc(Nc3ccc4[nH]ncc4c3Cl)n2)cn2ccnc12`
Result: > 30 µM

Request: What IC50 value was documented for this molecule, `Cn1cnc(C(=O)Nc2cc(-c3nsc(Nc4ccc5[nH]ncc5c4Cl)n3)ccn2)c1` ?
Result: > 30 µM

Request: Which IC50 value is on record for `CC(=O)Nc1cc(-c2nsc(Nc3ccc4[nH]ncc4c3Cl)n2)cn(C)c1=O` ?
Result: < 1 µM
